src = patent US20240043504A1

# targetDesc: SARS-CoV-2 Spike Protein (RBD)(R319-F541).hFc (SARS-CoV-2)
# assayProtocol: Luminex, supernatant
MFI values for the binders below.
Give the value in MFI but do not write MFI after it.

# binder, resultUnits, MFI
rows = [
    ("mAb10920 (antibody, V domains shown) VH: QVQLVESGGGVVQPGRSLRLSCAASGFTFSYYGMHWVRQAPGKGLEWVAVIWYDGSNKFYADSVKGRFTISRDNSKNTLYLQMNSLRAEDTAVYYCAAARPGYYYGMDVWGQGTTVTVSS VL: DIQMTQSPSSLSASVGDRVTITCRASQGISNYLAWFQQKPGKAPNSLIYAASSLQRGVPSKFSGSGSGTDFTLTISSLQPEDFATYYCQQYNSYPRTFGQGTKVEIKR", "MFI", 36800),
]

q: Item under review: mAb10989 (antibody, V domains shown) VH: QVQLVQSGAEVKKPGASVKVSCKASGYIFTGYYMHWVRQAPGQGLEWMGWINPNSGGANYAQKFQGRVTLTRDTSITTVYMELSRLRFDDTAVYYCARGSRYDWNQNNWFDPWGQGTLVTVSS VL: QSALTQPASVSGSPGQSITISCTGTSSDVGTYNYVSWYQQHPGKAPKLMIFDVSNRPSGVSDRFSGSKSGNTASLTISGLQAEDEADYYCSSFTTSSTVVFGGGTKLTVLG . Reported MFI?
a: 22400

q: Any idea what its MFI is? The binder is mAb10955 (antibody, V domains shown) VH: EVQLVESGGGLVQPGGSLRVSCAASGFTVSRNYMSWVRQAPGKGLEWVSVIYSGGSTFYADSVKGRFTISRDNSKNTLYLQMNSLRAEDTAIYYCARYIPRFDPWGQGTLVTVSS VL: DIQMTQSPSSLSASVGDRVTITCQASQDISNYLNWFQQKPGRAPKLLIYDASNLETGVPSRFSGSGSGTDFTFTISSLQPEDIATYYCQQYDNLPITFGQGTRLEIKR
a: 31200
